- experimental target: Protein FosB (Mus musculus) (UniProt P13346)
- Sequence (P13346 whole entry, looked up): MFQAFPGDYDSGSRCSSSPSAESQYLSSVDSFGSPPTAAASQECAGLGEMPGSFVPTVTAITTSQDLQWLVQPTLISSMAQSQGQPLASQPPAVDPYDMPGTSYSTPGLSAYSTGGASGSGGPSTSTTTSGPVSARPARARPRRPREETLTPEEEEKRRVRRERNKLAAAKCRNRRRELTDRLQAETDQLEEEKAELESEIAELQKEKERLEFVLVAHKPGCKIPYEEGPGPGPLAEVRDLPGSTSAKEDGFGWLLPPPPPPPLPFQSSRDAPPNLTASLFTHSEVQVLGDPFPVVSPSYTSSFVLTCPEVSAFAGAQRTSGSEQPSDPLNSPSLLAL
- measurement protocol: activators of delta FosB homodimer, primary screen, biochemical, fluorescence polarization, TAMRA-CDK5 oligo, single point (AID 493131);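 note: fluorescence polarization rise as delta FosB binds a TAMRA Cdk5 AP-1 oligo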
- condition info: purified delta FosB, at 25 µM, percent of positive-control signal above neutral wells
Screen size: about 340,000 compounds; about 3,300 (0.97%) were called active.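 Rule for the calls: active = mean activation above about 17%, with every replicate also reaching it (limit read from the data, passing the limit was not always enough); inconclusive = only one of the two conditions met; inactive = the rest.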 The sample as a whole holds a higher share of actives than the screen did.
Would you mind answering with one of these outcomes? active, inactive

Challenge: Can you look up the reported call for CC(C(=O)O)N1C(=O)c2cccc3cccc1c23 (stereo not given) for me?
Response given: inactive

Challenge: Can you look up the reported call for `CS(=O)(=O)N1CCc2nc(-c3ccccc3)sc2C1` for me?
Response given: inactive

Challenge: Can you look up the reported call for `CC(=O)Nc1ccc(S(=O)(=O)N2CCSCC2)cc1` for me?
Response given: inactive

Challenge: Can you look up the reported call for `Cn1c(=O)c2c(nc(Br)n2CCSc2nc3ccccc3o2)n(C)c1=O` for me?
Response given: inactive

Challenge: Can you look up the reported call for `COc1ccc(/C=C/C(=O)Nc2ccc(C34CC5CC(CC(O)(C5)C3)C4)cc2)cc1OC` for me?
Response given: active

Challenge: Can you look up the reported call for CC(OC(=O)c1cc2ccccc2o1)C(=O)Nc1ccc(N2CCOCC2)cc1 (stereo not given) for me?
Response given: inactive

Challenge: Can you look up the reported call for `COc1cc(/C=C/C(=O)Nc2ccc(OC)c(S(=O)(=O)N3CCOCC3)c2)ccc1OCC#N` for me?
Response given: inactive

Challenge: Can you look up the reported call for `COC(=O)C1=C(C)N(c2ccc(C)cc2)/C(=C/c2ccc(O)cc2)C1=O` for me?
Response given: inactive

Challenge: Can you look up the reported call for `O=C(Cc1ccc(-n2c(=O)c3sccc3n(Cc3ccc(F)cc3)c2=O)cc1)NCc1ccco1` for me?
Response given: active

Challenge: Can you look up the reported call for `CN(CC(=O)Nc1ccc(Cl)cc1)C(=O)CNC(=O)c1ccc2ccccc2c1` for me?
Response given: active

###

- experimental target: Protein FosB (Mus musculus) (UniProt P13346)
- measurement protocol: activators of delta FosB homodimer, primary screen, biochemical, fluorescence polarization, TAMRA-CDK5 oligo, single point (AID 493131);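 note: fluorescence polarization rise as delta FosB binds a TAMRA Cdk5 AP-1 oligo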
- condition info: purified delta FosB, at 25 µM, hits give high values, percent of positive-control signal above neutral wells
In all, about 340,000 compounds went through this assay and about 3,300 (0.97%) were called active. Many of the other results were omitted from the sample, so actives are more common in it than they were.
measurement type: activation (%)
Give bare numbers, in %.

Would you be so kind as to report activation for each listed record?
1. CCn1cc(CN2CCC(C(=O)Nc3cccc(-c4cccc(Cl)c4)c3)CC2)c(C)n1
2. CC(=O)Nc1ccc(S(=O)(=O)N(C)c2nc3ccccc3nc2Cl)cc1
3. CCN(CC(=O)Nc1c(F)cccc1F)C(=O)Cc1cccs1
4. O=C1/C(=C/c2coc3ccc(O)cc3c2=O)SC(=S)N1c1ccccc1
5. O=C(O)c1ccc(S(=O)(=O)c2ccccc2)s1
6. Nc1ccccc1/C=N\N=C/c1ccccc1N

Response given:
1: -5.85; 2: -7.23; 3: 3.46; 4: 45.3; 5: 0.96; 6: 1.65

Origin of measurements: PubChem BioAssay AID493131
